Where these numbers come from: patent US5248771A

- measurement_protocol: in vivo
- Parameters: species or system HSV1; A/J mice
- particulars: mouse, in vivo, iv, Infected, 24H, 1 μCurie in 100 μL i.v. tail vein; read-out: brain uptake, % dose per gram in entire brain
endpoint_name: tissue uptake at 24 h (%ID/g)
# output: bare number, implied unit %ID/g

What the record says about O=c1[nH]c(=O)n([C@@H]2O[C@H](CO)[C@@H](O)[C@@H]2O)cc1/C=C/[125I] [[^125 I]IVaraU] : tissue uptake at 24 h is 0.0379

* * *

- measurement_protocol: in vivo
- Design: species or system HSV1; A/J mice
- particulars: mouse, in vivo, iv, Infected, 4H, 1 μCurie in 100 μL i.v. tail vein; read-out: brain uptake, % dose per gram in entire brain
endpoint_name: tissue uptake at 4 h (%ID/g)
# output: bare number, implied unit %ID/g

What the record says about O=c1[nH]c(=O)n([C@@H]2O[C@H](CO)[C@@H](O)[C@@H]2O)cc1/C=C/[125I] [[^125 I]IVaraU] : tissue uptake at 4 h is 0.36

* * *

- measurement_protocol: in vivo
- Parameters: species or system HSV1; A/J mice
- particulars: mouse, in vivo, iv, Uninfected, 4H, 1 μCurie in 100 μL i.v. tail vein; read-out: brain uptake, % dose per gram in entire brain
endpoint_name: tissue uptake at 4 h
The reply should read as a number followed by its unit.

What the record says about O=c1[nH]c(=O)n([C@@H]2O[C@H](CO)[C@@H](O)[C@@H]2O)cc1/C=C/[125I] [[^125 I]IVaraU] : tissue uptake at 4 h is 0.229 %ID/g

* * *

- measurement_protocol: in vivo
- Set-up: species or system HSV1; A/J mice
- particulars: mouse, in vivo, iv, Infected, 48H, 1 μCurie in 100 μL i.v. tail vein; read-out: brain uptake, % dose per gram in entire brain
endpoint_name: tissue uptake at 48 h

What the record says about O=c1[nH]c(=O)n([C@@H]2O[C@H](CO)[C@@H](O)[C@@H]2O)cc1/C=C/[125I] [[^125 I]IVaraU] : tissue uptake at 48 h is 0.0181 %ID/g

* * *

- measurement_protocol: in vivo
- Parameters: species or system HSV1; A/J mice
- particulars: mouse, in vivo, iv, Uninfected, 24H, 1 μCurie in 100 μL i.v. tail vein; read-out: brain uptake, % dose per gram in entire brain
endpoint_name: tissue uptake at 24 h
The reply should read as a number followed by its unit.

What the record says about O=c1[nH]c(=O)n([C@@H]2O[C@H](CO)[C@@H](O)[C@@H]2O)cc1/C=C/[125I] [[^125 I]IVaraU] : tissue uptake at 24 h is 0.0024 %ID/g

* * *

- measurement_protocol: in vivo
- Design: species or system HSV1; A/J mice
- particulars: mouse, in vivo, iv, Uninfected, 48H, 1 μCurie in 100 μL i.v. tail vein; read-out: brain uptake, % dose per gram in entire brain
endpoint_name: tissue uptake at 48 h
The reply should read as a number followed by its unit.

What the record says about O=c1[nH]c(=O)n([C@@H]2O[C@H](CO)[C@@H](O)[C@@H]2O)cc1/C=C/[125I] [[^125 I]IVaraU] : tissue uptake at 48 h is 0.0005 %ID/g
